Test system: HPV-16
Assay: qPCR sensitivity against HPV-HNSCC tumor samples diluted among 10 ng normal human DNA
Settings: Sample # 14
ENDPOINT_LABEL: Threshold of tumor cell numbers for HPV-16 detection (tumor cells)
API: value field is a number in tumor cells; no unit string.

IN: Give the reported Threshold of tumor cell numbers for HPV-16 detection for this molecule. BR E1-6: HPV-16 E1 region primer/probe set, SEQ ID NO: 43-45 (nucleic acid, chemistry not given here) DNA 1: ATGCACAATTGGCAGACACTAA DNA 2: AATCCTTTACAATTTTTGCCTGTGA DNA 3: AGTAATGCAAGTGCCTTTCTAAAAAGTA
OUT: 6.0

IN: Give the reported Threshold of tumor cell numbers for HPV-16 detection for this molecule. BR E1-5: HPV-16 E1 region primer/probe set, SEQ ID NO: 40-42 (same as SEQ ID NO: 1-3) (nucleic acid, chemistry not given here) DNA 1: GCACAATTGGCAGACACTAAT DNA 2: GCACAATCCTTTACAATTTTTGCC DNA 3: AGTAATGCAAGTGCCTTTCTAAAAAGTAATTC
OUT: 6.0

IN: Give the reported Threshold of tumor cell numbers for HPV-16 detection for this molecule. E7: previously designed (historical) HPV-16 E7 primers and Taqman probe, SEQ ID NO: 10-12; part of CLIA test (nucleic acid, Taqman probe, labels not given here, part of CLIA test) DNA 1: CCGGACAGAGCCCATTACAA DNA 2: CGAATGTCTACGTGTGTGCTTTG DNA 3: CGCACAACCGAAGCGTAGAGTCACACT
OUT: 6.0

IN: Give the reported Threshold of tumor cell numbers for HPV-16 detection for this molecule. BR E6-1: HPV-16 E6 region (172-373 bp) primer/probe set, SEQ ID NO: 58-60 (nucleic acid, chemistry not given here) DNA 1: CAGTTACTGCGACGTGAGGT DNA 2: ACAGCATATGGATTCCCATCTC DNA 3: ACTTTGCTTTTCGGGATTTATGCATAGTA
OUT: 60.0
